experiment_description: folding stability dG unfold from chymotrypsin proteolysis; higher = more stable
Think of 1 kcal/mol as a floor: if folding stability dG unfold stands on it or above, it is Fulfilled; beneath it, Not fulfilled.

Here's what some known entries look like.
{"macromolecule_sequence": "SAGGKLKIKIGDKEYTVESVEIIEERPLPGGGPVYLIRLKFKDGPALIEIPPNIPSSISNNGTLVAGSAGGS [r16_638_TrMRF]", "group_label": "Fulfilled"}
{"macromolecule_sequence": "SAGGMPIKSKKEAEEFIKKGGAKYLSKTKVKVKGEEKEKEFEVYEFVFKDPKTNKPILVVVPKEYIGSAGGS [r16_271_TrMRF]", "group_label": "Fulfilled"}
{"macromolecule_sequence": "SAGGMVKLTVYETPDSYTVTIDLGDKPYTIPVPPGLSPEEAAARAVEELQKAFPDEEVVVESVEYVARSAGG [r13_884_JUSTAS]", "group_label": "Fulfilled"}
{"macromolecule_sequence": "SAGGGADVISAYDPETVEELSKLPWVTSVTYDPETGRYDIRFERPDGQYNYVVDNVTKEVLEVSPVDSAGGS [r8_251_TrMRF]", "group_label": "Fulfilled"}
{"macromolecule_sequence": "SAGGSAGGSAGGPVFDMSNFEEVKEAAEKAGIDVVEEDPEKNTIYVDPSKPELIKEAIQKSAGGSAGGSAGG [r7_285_JUSTAS]", "group_label": "Not fulfilled"}

Exam item: I'd appreciate it if you could say whether SAGVLTIEVQMPADDAEEFAEEVADTIARRLGFPPGFKIKVKVDRFDPDNGYVRVEATIEFPLPPNQPPSAG [r5_537_TrROS] has folding stability dG unfold at least equal to 1 kcal/mol.
Marked response: Fulfilled

Exam item: I'd appreciate it if you could say whether SAVTFPVPVTVTVPDADGGPPAVTVPVAVPVDPDAVRDAAIERLRRELAEAGRPDVTEEDLARPEFLAARSA [r9_263_TrMRF] has folding stability dG unfold at least equal to 1 kcal/mol.
Marked response: Not fulfilled

Exam item: I'd appreciate it if you could say whether SAGGSAMSLEELKGHLVRLTLPDGRVVVAPVKEMDEEAPVLVIEFGGKPILIPKDAPVKLEVLPPGSAGGSA [r15_355_TrMRF] has folding stability dG unfold at least equal to 1 kcal/mol.
Marked response: Not fulfilled

Exam item: I'd appreciate it if you could say whether SAGGSAGGSMKPLGQGDFEDPDGWKIKISMYPDGWFRIEIYDKNGKPKETIPVPANDLPDILKSAGGSAGGS [r12_664_TrROS] has folding stability dG unfold at least equal to 1 kcal/mol.
Marked response: Fulfilled

Exam item: I'd appreciate it if you could say whether SAGGSAMKIKRDNGKVRIEIDFPPEMKNPERMLMNIRSAINENPNKPIKVTMPPGHREWAKRLLKESAGGSA [r15_89_TrROS] has folding stability dG unfold at least equal to 1 kcal/mol.
Marked response: Not fulfilled

Exam item: I'd appreciate it if you could say whether SAGPEKVREAARELFEKLNLPIVSEEAIEVGDAVLIRFEIPEIGTKITILAPVFENGEIKVIVKIEPVSSAG [r5_888_TrMRF] has folding stability dG unfold at least equal to 1 kcal/mol.
Marked response: Fulfilled

Exam item: I'd appreciate it if you could say whether SAGGSAGGKKPPKIKVIYIKADSPEALKKLKIKAKPGDTILIYVDGKLYRLTVIDGKIKIEELPSAGGSAGG [r6_550_TrROS_Hall] has folding stability dG unfold at least equal to 1 kcal/mol.
Marked response: Fulfilled

Exam item: I'd appreciate it if you could say whether SAGGSAGGKVTVDPAKVKAILTLKDGSKLIVLEDGVLLYNPKTEKVTLVSLSDLKKLPEDAPVPSAGGSAGG [r6_889_TrMRF] has folding stability dG unfold at least equal to 1 kcal/mol.
Marked response: Fulfilled

Exam item: I'd appreciate it if you could say whether SAGNPVLLKRPFIDPENGEPVYELTLFDPESNIVTTLFFNSDGKVIAVAVAYVPPETDEVDIELSVFDGSAG [r5_747_TrMRF] has folding stability dG unfold at least equal to 1 kcal/mol.
Marked response: Fulfilled

Exam item: I'd appreciate it if you could say whether SAGGSAGGRVRIHYNPEDGYIMITFPRNNPEEIAKEILEAFNIKDVNIQVDPEEGWVSIMIKIDSAGGSAGG [r6_662_TrROS] has folding stability dG unfold at least equal to 1 kcal/mol.
Marked response: Fulfilled

Exam item: I'd appreciate it if you could say whether SAGGSAGGSAGGPIEEILASLPPNATVKVSRVVKLTTPDGSLSSIEVEEVITVKKPEKALSAGGSAGGSAGG [r11_347_JUSTAS] has folding stability dG unfold at least equal to 1 kcal/mol.
Marked response: Not fulfilled

Exam item: I'd appreciate it if you could say whether SAGGSAGGSAKPPVTLTILVKNPETGEWVRLEVEFLPDGTVKITVTNPNGEKYTFTFKLPPSAGGSAGGSAG [r3_61_TrROS_Hall] has folding stability dG unfold at least equal to 1 kcal/mol.
Marked response: Fulfilled

Exam item: I'd appreciate it if you could say whether SAGKVEIVVTYPDGSKAVIDSDNPLVFTITDPDGNSSTISGTGFDEALLKIVELLKEKTGKPVEKVEIKSAG [r5_119_TrMRF] has folding stability dG unfold at least equal to 1 kcal/mol.
Marked response: Fulfilled

----------
experiment_description: folding stability dG unfold (combined trypsin and chymotrypsin); higher = more stable
// values below are reported folding stability dG unfold
Your reply should be a number followed by the unit it is expressed in.

See these solved cases before continuing.
{"macromolecule_sequence": "SGVQLEWKYDPEDNKREIKISIFFPADDPEKKKQFAKVIAKEIENMFQEQGWKPKKIDIEVMRMPPGQPLSA [r9_117_TrROS]", "result": "1.02 kcal/mol"}
{"macromolecule_sequence": "SAGTIREALDNPKNKRVVIMIMIPPEDFPPGDPERYRERAREMANGIMGWFRERGLDVKIEIEIMYMPWSAG [r5_408_TrROS]", "result": "2.65 kcal/mol"}
{"macromolecule_sequence": "SAGGSAGGSTPMSVEEIVERIKEEKRKENPNETVEIEFTAELKGGPEGAPEGIYPVKIKVPPGKSAGGSAGG [r6_79_JUSTAS]", "result": "0.208 kcal/mol"}
{"macromolecule_sequence": "SAGGSAGGSAGSPVVTTEKVKTEGNTTVYRVTEPALNTETLVTEDAGANPTIKTTTYNTPSAGGSAGGSAGG [r11_738_JUSTAS]", "result": "-0.747 kcal/mol"}
{"macromolecule_sequence": "SAGGSAGGSAGGGVGIAEISFDPETQTVTIKAYNPETEEITEITIPVTNPLPLDLSDITSAGGSAGGSAGGS [r10_331_TrMRF]", "result": "0.725 kcal/mol"}

Moving on to another sequence below.
Exam item: # input sequence: SAGGSAETLTITLTVKPGETVTIKALFKAEDGSVYAVTATFTAEDEGTVTITVTRLPPGVKDLADLSAGGSA [r15_909_TrROS_Hall] ; wanted: its folding stability dG unfold
Marked response: 4.4 kcal/mol

----------
// values below are reported folding stability dG unfold
experiment_description: folding stability dG unfold from chymotrypsin proteolysis; higher = more stable
Supply the numeric figure in kcal/mol, leaving out any unit text.

See these solved cases before continuing.
{"macromolecule_sequence": "SAGGSAGGSAGGSIEINIMFELPNGLIFRISTTIEPNPDGNLKLDIDIEVIPIKPGQPISAGGSAGGSAGGS [r10_241_TrROS]", "units_symbol": "kcal/mol", "quantitative_readout": 4.19}
{"macromolecule_sequence": "SEPWELVEERELPPNAVITFPNGEKLEIDPEKARVRVWRRPDSVRVLVVLKDGTVLEFEFYAPPRVTDDDSA [r9_348_TrMRF]", "units_symbol": "kcal/mol", "quantitative_readout": 2.58}
{"macromolecule_sequence": "SAGGSAGGSAGGLEIEFWFFFPDEGYMIEVEWERDPDGPIEPTKITEIHPMPDGQPNPGFSAGGSAGGSAGG [r11_750_TrROS]", "units_symbol": "kcal/mol", "quantitative_readout": 2}
{"macromolecule_sequence": "GSVTIELVVPKGVDIPLALLAGIASTGKGKVTARISNPLSGKEIEVTFPGGGLGEAGVTEGINVVRLTVYGS [r1_238_TrMRF]", "units_symbol": "kcal/mol", "quantitative_readout": 1.29}
{"macromolecule_sequence": "SAGGSAGGSAGGIRIEFPGMKFEIDEFDPPNGVITLRFPENGQELQIKFDSDGEITKITWSAGGSAGGSAGG [r7_553_TrROS]", "units_symbol": "kcal/mol", "quantitative_readout": 1.94}
{"macromolecule_sequence": "SAGGSAGGSKITIKLIKNGEIVEEKEIEDKKTGKKIKIKAIKKDGKLYLVIEVDGKKYVIPLPSAGGSAGGS [r12_994_TrROS_Hall]", "units_symbol": "kcal/mol", "quantitative_readout": 3.93}
{"macromolecule_sequence": "SAPIKIEIDVHQPPPGDYMIMVRIRPPGDGKEFPRMFPFPPDDAEKILENLLSQFPGYEIDDIEPMRYPSAG [r14_969_TrROS]", "units_symbol": "kcal/mol", "quantitative_readout": 1.08}
{"macromolecule_sequence": "SAGGSAGGSIWIPPNHSVEEFAKEIQDKGNAEVKRDEPGWYKIKSKNNKPKKRIRFQANPEQFSAGGSAGGS [r20_236_TrROS]", "units_symbol": "kcal/mol", "quantitative_readout": 0.24}

Exam item: # input sequence: SAGGSAGGSAGSMEPVKTEELESGEVRTVSLLPDGTIKEELIKIEGEGETVETKVVPLEESAGGSAGGSAGG [r11_699_JUSTAS] ; wanted: its folding stability dG unfold
Marked response: 1.68

Exam item: # input sequence: SAGGSAGGSKAKIEVLEVFPDYIVYKIETENPVIAVIVPLPNGKVKIFVFNPNGEPIAEFELGSAGGSAGGS [r12_1061_TrMRF] ; wanted: its folding stability dG unfold
Marked response: 3.88

Exam item: # input sequence: SAGGSAGGSPGVRVKPVGDHYVVEIPLPPSVPLGRAVFEVEGGYAETVAVDPERGIATVRVPLSAGGSAGGS [r12_675_TrMRF] ; wanted: its folding stability dG unfold
Marked response: 0.091

Exam item: # input sequence: SAGGKVVVLTFPKDNPEEVREALAKLPNVVRVEVEKVNDRYLAVAELEGELAVFVSLPDGRYVLLVLGSAGG [r13_907_TrMRF] ; wanted: its folding stability dG unfold
Marked response: 2.99

Exam item: # input sequence: EMTEEELREKLPELSPEELEELARKLAEELGIEEVEEVEVVSVKPDGTIEVKVKLKDGEELTIEIPLEELLS [r1_435_TrROS_Hall] ; wanted: its folding stability dG unfold
Marked response: 2.07

Exam item: # input sequence: SAGGSAGGWRIKIMPMGGKKKKIPIDSPEEIIDKIQKEAKEDGLPGNVRITVEYNGQKRTFTIRSAGGSAGG [r6_532_TrROS] ; wanted: its folding stability dG unfold
Marked response: -0.203

Exam item: # input sequence: SAGGSAGGSADKIPVKIKVKLKDGDKEYEVTVTVTLDVNDPNLDAFAKELASSGKIEEVEASAGGSAGGSAG [r3_30_TrMRF] ; wanted: its folding stability dG unfold
Marked response: 1.03
